Measured IC50, listed per entry for reference.
Biological target: human Nav1.7 (Homo sapiens (Human))
Sequence (Q15858 whole entry): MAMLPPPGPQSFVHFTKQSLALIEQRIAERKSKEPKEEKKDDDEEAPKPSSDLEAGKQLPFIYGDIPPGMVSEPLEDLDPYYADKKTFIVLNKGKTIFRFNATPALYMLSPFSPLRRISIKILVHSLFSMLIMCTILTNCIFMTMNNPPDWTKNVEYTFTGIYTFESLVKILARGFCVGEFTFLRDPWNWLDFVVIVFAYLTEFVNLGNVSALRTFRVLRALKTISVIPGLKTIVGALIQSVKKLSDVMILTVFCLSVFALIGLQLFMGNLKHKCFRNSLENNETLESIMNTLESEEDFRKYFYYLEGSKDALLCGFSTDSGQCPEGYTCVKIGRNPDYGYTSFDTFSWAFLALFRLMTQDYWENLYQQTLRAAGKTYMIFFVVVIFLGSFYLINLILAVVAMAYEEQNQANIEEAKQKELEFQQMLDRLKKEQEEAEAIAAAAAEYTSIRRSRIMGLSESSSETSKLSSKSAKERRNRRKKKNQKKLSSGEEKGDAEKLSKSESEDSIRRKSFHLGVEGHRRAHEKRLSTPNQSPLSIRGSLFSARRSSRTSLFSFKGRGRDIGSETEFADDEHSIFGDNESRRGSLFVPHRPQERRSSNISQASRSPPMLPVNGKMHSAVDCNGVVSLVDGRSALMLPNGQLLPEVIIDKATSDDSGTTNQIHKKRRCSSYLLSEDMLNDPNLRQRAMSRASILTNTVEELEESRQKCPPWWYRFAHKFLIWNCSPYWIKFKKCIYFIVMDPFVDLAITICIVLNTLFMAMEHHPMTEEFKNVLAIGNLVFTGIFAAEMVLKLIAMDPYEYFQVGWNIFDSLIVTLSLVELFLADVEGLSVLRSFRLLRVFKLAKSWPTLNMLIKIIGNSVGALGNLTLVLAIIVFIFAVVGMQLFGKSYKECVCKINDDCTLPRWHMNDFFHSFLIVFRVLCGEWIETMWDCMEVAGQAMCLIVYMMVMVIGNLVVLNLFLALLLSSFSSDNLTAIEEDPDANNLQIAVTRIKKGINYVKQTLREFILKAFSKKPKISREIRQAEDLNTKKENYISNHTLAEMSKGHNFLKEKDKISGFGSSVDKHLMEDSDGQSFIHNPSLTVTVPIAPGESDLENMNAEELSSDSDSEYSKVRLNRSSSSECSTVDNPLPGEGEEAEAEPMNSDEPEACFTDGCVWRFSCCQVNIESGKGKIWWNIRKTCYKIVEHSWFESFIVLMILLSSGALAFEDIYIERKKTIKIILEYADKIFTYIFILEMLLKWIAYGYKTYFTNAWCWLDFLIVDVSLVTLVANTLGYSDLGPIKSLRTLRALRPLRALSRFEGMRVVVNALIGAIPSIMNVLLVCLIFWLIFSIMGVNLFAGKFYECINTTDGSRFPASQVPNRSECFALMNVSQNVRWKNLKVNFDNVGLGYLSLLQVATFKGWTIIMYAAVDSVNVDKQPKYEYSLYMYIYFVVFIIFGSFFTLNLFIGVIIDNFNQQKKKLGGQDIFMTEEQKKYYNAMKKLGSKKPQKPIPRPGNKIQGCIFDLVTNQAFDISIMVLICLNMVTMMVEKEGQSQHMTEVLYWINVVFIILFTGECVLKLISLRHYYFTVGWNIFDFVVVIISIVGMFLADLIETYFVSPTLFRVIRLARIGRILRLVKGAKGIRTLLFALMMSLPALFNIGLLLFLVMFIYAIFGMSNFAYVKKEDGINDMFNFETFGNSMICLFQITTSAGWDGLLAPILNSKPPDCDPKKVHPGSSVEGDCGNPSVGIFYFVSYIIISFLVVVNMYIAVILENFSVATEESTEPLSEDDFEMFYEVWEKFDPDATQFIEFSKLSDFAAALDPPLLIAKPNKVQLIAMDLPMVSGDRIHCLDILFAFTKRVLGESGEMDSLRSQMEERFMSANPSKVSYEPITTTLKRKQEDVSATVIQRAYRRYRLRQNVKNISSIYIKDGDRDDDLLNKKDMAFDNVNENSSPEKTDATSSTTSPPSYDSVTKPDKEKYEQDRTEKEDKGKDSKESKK
Test: FRET-based membrane potential assay, recombinant human sodium channel Nav1.7
Details: HEK293 cells stably expressing recombinant human Nav1.7; depolarization with veratridine (EC80) + scorpion venom
Your answer should be a plain number; it is taken to be in µM.

Use the examples below as a reference point.
[[record]]
compound = "O=C1N(Cc2cc(F)ccc2F)CCN1c1cccc2c1cnn2-c1ccccc1F"
data_value = 2.14

[[record]]
compound = "O=C(CN1CCN(c2cccc3c2cnn3-c2ccccc2F)C1=O)NCC(F)(F)F"
data_value = 4.79

[[record]]
compound = "O=C(CN1CCN(c2cccc3c2cnn3-c2ccccc2F)C1=O)N1CCN2CCC[C@H]2C1"
data_value = 0.482

[[record]]
compound = "C[C@@]1(c2cccc(F)c2)C[C@@H](N2CCN(c3cccc4c3cnn4-c3ccccc3F)C2=O)CO1"
data_value = 3.67

[[record]]
compound = "O=C1N(Cc2cscn2)CCN1c1cccc2c1cnn2-c1ccccc1F"
data_value = 0.301

[[record]]
compound = "O=C(CN1CCN(c2cccc3c2cnn3-c2ccccc2F)C1=O)N1CCC[C@H](O)C1"
data_value = 4.15

[[record]]
compound = "O=C1N(c2cccc3c2cnn3-c2ccccc2F)CCN1C1CNC1"
data_value = 15

[[record]]
compound = "O=C1N(c2cnccc2F)CCN1c1cccc2c1cnn2-c1ccccc1F"
data_value = 2.87

[[record]]
compound = "Cc1noc(C(C)N2CCN(c3cccc4c3cnn4-c3ccccc3F)C2=O)n1 (racemic)"
data_value = 1.87

[[record]]
compound = "Cc1nnc(CN2CCN(c3cccc4c3cnn4-c3ccccc3F)C2=O)s1"
data_value = 3.15


Ask: Recall the recorded IC50 for O=C1N(CC(=O)N2CCC[C@@H]2C(F)(F)F)CCN1c1cccc2c1cnn2-c1ccccc1F with human Nav1.7 (Homo sapiens (Human)) and state it.
Result: 0.285

Ask: Field: IC50 (human Nav1.7 (Homo sapiens (Human))). Entry: CC(C)S(=O)(=O)N1CCN(c2cccc3c2cnn3-c2ccccc2F)C1=O
Result: 2.46
